Reference source: patent US10800789B2

- Test system: NS5A chimeric genotype 1b Con1 replicon with genotype 3a S52 strain NS5A gene
- measurement description: Replicon assay, genotype 3a NS5A chimera
- Format: cell-based, HCV
- particulars: Hepatitis C virus, read-out: 3a (t), transiently transfected (t) into Huh-Lunet cells; activity range
pEC50: −log10 of the molar value.
Exercise: state measured pEC50 for each of the compounds provided.

response.value for COC(=O)N[C@H](C(=O)N1[C@@H](C)CC[C@H]1c1nc2ccc3cc4c(cc3c2[nH]1)OCc1cc(-c2cnc([C@@H]3C[C@H](C)CN3C(=O)[C@@H](NC(=O)OC)C3CCOCC3)[nH]2)ccc1-4)C(C)C (field: pEC50) = > 10.00

response.value for CC[C@H]1CC[C@@H](c2ncc(-c3ccc4c(c3)COc3cc5c(ccc6nc([C@@H]7CC[C@H](C)N7C(=O)[C@@H](NC(=O)OC)C(C)C)[nH]c65)cc3-4)[nH]2)N1C(=O)[C@@H](NC(=O)OC)C1CCOCC1 (field: pEC50) = > 10.00

response.value for COC(=O)N[C@H](C(=O)N1[C@@H](C)CC[C@H]1c1nc(C2CC2)c(-c2ccc3c(c2)COc2cc4c(ccc5nc([C@@H]6CC[C@H](C)N6C(=O)[C@@H](NC(=O)OC)[C@@H](C)OC)[nH]c54)cc2-3)[nH]1)[C@@H](C)OC (field: pEC50) = > 10.00

* * *

- Test system: NS5A chimeric genotype 2a JFH-1 replicon with genotype 2b MD2b-1 strain NS5A gene (M31 present)
- measurement description: Replicon assay, genotype 2b NS5A chimera
- Assay type: cell-based, HCV
- particulars: Hepatitis C virus, read-out: 2b (s) (nM), genotype 2b MD2b-1 NS5A chimeric replicon (M31), stably replicating replicon cells (s)
- Procedure: Evaluation of Cell-Based Anti-HCV Activity: Antiviral potency (EC50) was determined using a Renilla luciferase (RLuc)-based HCV replicon reporter assay. […] 72 hours later, cells were lysed and Renilla luciferase activity quantified as recommended by the manufacturer (Promega-Madison, Wis.). […]
readout: EC50 (nM)
Answer in nM, number only, no unit symbol.

response.value for CC[C@H]1CC[C@@H](c2nc3ccc4cc5c(cc4c3[nH]2)OCc2cc(-c3cnc([C@@H]4CC[C@H](C)N4C(=O)[C@@H](NC(=O)OC)C(C)C)[nH]3)ccc2-5)N1C(=O)[C@@H](NC(=O)OC)[C@@H](C)O (field: EC50) = 0.372

response.value for [2H]C([2H])([2H])C([2H])(C([2H])([2H])[2H])[C@]([2H])(NC(=O)OC)C(=O)N1[C@@H](C)CC[C@H]1c1ncc(-c2ccc3c(c2)COc2cc4c(ccc5nc([C@@H]6CC[C@H](C)N6C(=O)[C@@]([2H])(NC(=O)OC)C([2H])(C([2H])([2H])[2H])C([2H])([2H])[2H])[nH]c54)cc2-3)[nH]1 (field: EC50) = 0.49

response.value for CC[C@H](C)C(NC(=O)OC)C(=O)N1[C@@H](C)CC[C@H]1c1nc2ccc3cc4c(cc3c2[nH]1)OCc1cc(-c2cnc([C@@H]3CC[C@H](C)N3C(=O)[C@@H](NC(=O)OC)[C@@H](C)OC)[nH]2)ccc1-4 (stereo partly shown) (field: EC50) = 0.153

response.value for CC[C@H]1CC[C@@H](c2ncc(-c3ccc4c(c3)COc3cc5c(ccc6nc([C@@H]7C[C@H](COC)CN7C(=O)[C@@H](NC(=O)OC)C(C)C)[nH]c65)cc3-4)[nH]2)N1C(=O)[C@@H](NC(=O)OC)C(C)C (field: EC50) = 0.852

* * *

- System: stable HCV 1a RLuc replicon cells (dicistronic genotype 1a H77 replicon)
- measurement description: Renilla luciferase HCV replicon reporter assay, genotype 1a
- Type: cell-based
- particulars: Hepatitis C virus, 72 h, stable 1a H77 RLuc replicon cells, activity range
pEC50: −log10 of the molar value.
Exercise: state measured pEC50 for each of the compounds provided.

response.value for CC[C@H]1CC[C@@H](c2ncc(-c3ccc4c(c3)COc3cc5c(ccc6nc([C@@H]7C[C@@H]8CCC[C@@H]8N7C(=O)[C@@H](NC(=O)OC)C7CCOCC7)[nH]c65)cc3-4)[nH]2)N1C(=O)[C@@H](NC(=O)OC)C(C)C [IQ] (field: pEC50) = > 10.00

response.value for COC(=O)N[C@H](C(=O)N1[C@@H](C)CC[C@H]1c1nc2ccc3cc4c(cc3c2[nH]1)OCc1cc(-c2cnc([C@@H]3C[C@H](F)CN3C(=O)[C@@H](NC(=O)OC)C3CCOCC3)[nH]2)ccc1-4)C(C)C [HT] (field: pEC50) = > 10.00

response.value for CC[C@H](C)C(NC(=O)OC)C(=O)N1[C@@H](C)CC[C@H]1c1nc2ccc3cc4c(cc3c2[nH]1)OCc1cc(-c2cnc([C@@H]3CC[C@H](C)N3C(=O)[C@@H](NC(=O)OC)[C@@H](C)OC)[nH]2)ccc1-4 (stereo partly drawn) [EH] (field: pEC50) = > 10.00

response.value for CC[C@H](C)[C@H](NC(=O)OC)C(=O)N1[C@@H](C)CC[C@H]1c1ncc(-c2ccc3c(c2)COc2cc4c(ccc5nc([C@@H]6CC[C@H](C)N6C(=O)[C@@H](NC(=O)OC)[C@@H](C)CC)[nH]c54)cc2-3)[nH]1 [EC] (field: pEC50) = > 10.00

response.value for COC(=O)N[C@H](C(=O)N1[C@@H](C)CC[C@H]1c1nc2ccc3cc4c(cc3c2[nH]1)OCc1cc(-c2cnc([C@@H]3CC[C@H](C)N3C(=O)[C@@H](NC(=O)OC)[C@@H](C)OC(F)F)[nH]2)ccc1-4)[C@@H](C)OC [GN] (field: pEC50) = > 10.00

response.value for CC[C@H](C)[C@H](NC(=O)OC)C(=O)N1[C@@H](C)CC[C@H]1c1ncc(-c2ccc3c(c2)COc2cc4c(ccc5nc([C@@H]6CC[C@H](C)N6C(=O)[C@@H](NC(=O)OC)C(C)C)[nH]c54)cc2-3)[nH]1 [GL] (field: pEC50) = > 10.00

response.value for COC(=O)N[C@H](C(=O)N1[C@@H](C)CC[C@H]1c1ncc(-c2ccc3c(c2)COc2cc4c(ccc5nc([C@@H]6CC[C@H](C)N6C(=O)[C@@H](NC(=O)OC(C)(C)C)C(C)(C)O)[nH]c54)cc2-3)[nH]1)C(C)C [HV] (field: pEC50) = 7.36 to 9.00

response.value for COC[C@H]1C[C@@H](c2nc(Cl)c(-c3ccc4c(c3)COc3cc5c(ccc6nc([C@@H]7CC[C@H](C)N7C(=O)[C@@H](NC(=O)OC)C(C)C)[nH]c65)cc3-4)[nH]2)N(C(=O)[C@H](NC(=O)OC)c2ccccc2)C1 [FY] (field: pEC50) = > 10.00

response.value for COC(=O)N[C@H](C(=O)N1C[C@@H](C)C[C@H]1c1ncc(-c2ccc3c(c2)COc2cc4c(ccc5nc([C@@H]6CC[C@H](C)N6C(=O)[C@@H](NC(=O)OC)C6CCOCC6)[nH]c54)cc2-3)[nH]1)C(C)C [FN] (field: pEC50) = > 10.00

* * *

- Tested on: stable HCV 2a JFH-1 Rluc replicon cells (L31 present in NS5A)
- measurement description: Renilla luciferase HCV replicon reporter assay, genotype 2a JFH-1
- Type: cell-based
- particulars: Hepatitis C virus, read-out: 2a JFH (nM), genotype 2a JFH-1 replicon (L31 in NS5A), stable cells
readout: EC50 (nM)
Answer in nM, number only, no unit symbol.

response.value for CC[C@H]1CC[C@@H](c2nc3ccc4cc5c(cc4c3[nH]2)OCc2cc(-c3cnc([C@@H]4CC[C@H](C)N4C(=O)[C@@H](NC(=O)OC)C(C)C)[nH]3)ccc2-5)N1C(=O)[C@@H](NC(=O)OC)C(C)C [IF] (field: EC50) = 0.026

response.value for CC[C@H]1CC[C@@H](c2ncc(-c3ccc4c(c3)COc3cc5c(ccc6nc([C@@H]7CC[C@H](C)N7C(=O)[C@@H](NC(=O)OC)[C@@H](C)OC)[nH]c65)cc3-4)[nH]2)N1C(=O)[C@@H](NC(=O)OC)C(C)C [EQ] (field: EC50) = 0.022

response.value for COC(=O)N[C@H](C(=O)N1C[C@@H](F)C[C@H]1c1ncc(-c2ccc3c(c2)COc2cc4c(ccc5nc([C@@H]6CC[C@H](C)N6C(=O)[C@@H](NC(=O)OC)C(C)C)[nH]c54)cc2-3)[nH]1)C(C)C [HS] (field: EC50) = 0.022

* * *

- Test system: stable HCV 2a JFH-1 Rluc replicon cells (L31 present in NS5A)
- measurement description: Renilla luciferase HCV replicon reporter assay, genotype 2a JFH-1
- Assay type: cell-based
- particulars: Hepatitis C virus, read-out: 2a JFH (nM), genotype 2a JFH-1 replicon (L31 in NS5A), stable cells
readout: EC50 (nM)
Answer in nM, number only, no unit symbol.

response.value for CC[C@H]1C[C@@H](c2ncc(-c3ccc4c(c3)COc3cc5c(ccc6nc([C@@H]7CC[C@H](C)N7C(=O)[C@@H](NC(=O)OC)C(C)C)[nH]c65)cc3-4)[nH]2)N(C(=O)[C@@H](NC(=O)OC)C(C)C)C1 [GW] (field: EC50) = 0.018

response.value for COC(=O)N[C@@H](CO)C(=O)N1[C@@H](C)CC[C@H]1c1nc2ccc3cc4c(cc3c2[nH]1)OCc1cc(-c2cnc([C@@H]3CC[C@H](C)N3C(=O)[C@@H](NC(=O)OC)C(C)C)[nH]2)ccc1-4 [GZ] (field: EC50) = 0.019

response.value for COC(=O)N[C@H](C(=O)N1[C@@H](C)CC[C@H]1c1nc(Cl)c(-c2ccc3c(c2)COc2cc4c(ccc5nc([C@@H]6CC[C@H](C)N6C(=O)[C@@H](NC(=O)OC)[C@@H](C)OC)[nH]c54)cc2-3)[nH]1)[C@@H](C)OC [GB] (field: EC50) = 0.011

response.value for COC(=O)N[C@H](C(=O)N1[C@@H](C)CC[C@H]1c1nc2ccc3cc4c(cc3c2[nH]1)OCc1cc(-c2cnc([C@@H]3C[C@H](F)CN3C(=O)[C@@H](NC(=O)OC)C3CCOCC3)[nH]2)ccc1-4)C(C)C [HT] (field: EC50) = 0.051

response.value for CC[C@H](C)[C@H](NC(=O)OC)C(=O)N1[C@@H](C)CC[C@H]1c1ncc(-c2ccc3c(c2)COc2cc4c(ccc5nc([C@@H]6CC[C@H](C)N6C(=O)[C@@H](NC(=O)OC)C(C)C)[nH]c54)cc2-3)[nH]1 [GL] (field: EC50) = 0.024

response.value for COC(=O)N[C@H](C(=O)N1C[C@@H](C)C[C@H]1c1nc2ccc3cc4c(cc3c2[nH]1)OCc1cc(-c2cnc([C@@H]3CC[C@H](C)N3C(=O)[C@@H](NC(=O)OC)C(C)(C)C)[nH]2)ccc1-4)C(C)C [HX] (field: EC50) = 0.027

response.value for COC(=O)N[C@H](C(=O)N1[C@@H](C)CC[C@H]1c1ncc(-c2ccc3c(c2)COc2cc4c(ccc5nc([C@@H]6CC[C@H](C)N6C(=O)[C@@H](NC(=O)OC)[C@@H](C)OC(C)(C)C)[nH]c54)cc2-3)[nH]1)C(C)C [FG] (field: EC50) = 0.047

response.value for COC(=O)N[C@H](C(=O)N1[C@@H](C)CC[C@H]1c1ncc(-c2ccc3c(c2)COc2cc4c(ccc5nc([C@@H]6CC[C@H](C)N6C(=O)[C@@H](NC(=O)OC)[C@@H](C)O)[nH]c54)cc2-3)[nH]1)C(C)C [FI] (field: EC50) = 0.015

response.value for COC(=O)N[C@H](C(=O)N1[C@@H](C)CC[C@H]1c1nc2ccc3cc4c(cc3c2[nH]1)OCc1cc(-c2cnc([C@@H]3C[C@@H]5CCC[C@@H]5N3C(=O)[C@@H](NC(=O)OC)C3CCOCC3)[nH]2)ccc1-4)C(C)C [IB] (field: EC50) = 0.027
